# Tested on: NCI/ADR-RES
# EXPERIMENT_SUMMARY: NCI tumour cell line growth inhibition, 48 h
Activity calls are given as the source filed them. Cut-off read from the data, not from the text of the source: active = GI50 up to about 1.1 µM and inactive = higher.
Valid outcomes are listed here; reply with one: true (active), false (inactive)

For orientation, consider the following solved cases.
{"COMPOUND": "CC(=O)OCC1OC(n2c(-c3ccc(Cl)cc3)ccc(C#N)c2=S)C(OC(C)=O)C(OC(C)=O)C1OC(C)=O (stereo not drawn)", "CATEGORY_LABEL": "false"}
{"COMPOUND": "c1ccc2c(C3CCN(CCN4CCOCC4)C3)c[nH]c2c1 (stereo not drawn)", "CATEGORY_LABEL": "false"}
{"COMPOUND": "NC12Oc3cc(O)cc(O)c3C1(c1ccc(Cl)cc1)c1c(O)cc(O)cc1O2 (stereo not drawn)", "CATEGORY_LABEL": "false"}
{"COMPOUND": "C=C1C(=O)O[C@@H]2/C=C(/C)[C@@H](OC(C)=O)C[C@@H](O)/C(C)=C\\[C@@H](OC(=O)[C@]3(C)O[C@@H]3C)[C@@H]12", "CATEGORY_LABEL": "false"}
{"COMPOUND": "C/C(=N\\NC(=S)N1CCN(C2CCCCCC2)CC1)c1ccccn1", "CATEGORY_LABEL": "true"}

Hello, I am checking results. What call was entered for CN(C)CCCCN1CCc2c(n(C)c3ccccc23)C1=O ?
false

Identify the outcome logged in this assay for the compound shown: Cc1cc(NN)nc2[nH]nc(N)c12
false

Called result for Cc1ccc(CN2CCN(Cc3ccc(C)o3)C(C)C2)o1 (stereo not drawn)
false

// param item: CN(C)CCNC(=O)c1cccc2ccc(-c3ccc(Br)cc3)nc12 ; yields the recorded call
false

Recorded test call requested for CC1CC/C(=C\c2ccc(F)cc2)C2=C1C(c1ccc(F)cc1)NC(=S)N2 (stereo not drawn)
false

Outcome? O=C(NCCCCNCCCNC(=O)C(F)(F)F)C(F)(F)F
false

Field: outcome | Entry: COc1cc2c(cc1OC)C1C(O)C(OC)C(Br)C3(Br)CCN(C2)C13 (stereo not drawn)
false

Record lookup: outcome of this test for C#CCOC(=O)C(N)CS (stereo not drawn) ?
false

Hello, I am checking results. What call was entered for C=C(CN(C)C)C(=O)c1ccccc1OC ?
false

What did the test return for O=C1c2ccccc2CC12Cc1cc3c(cc1C2)CCC3 ?
false
